# Measurement target: RIPK1 (receptor-interacting serine/threonine-protein kinase 1) (Homo sapiens (Human))
# Sequence (Q13546 whole entry, species assumed): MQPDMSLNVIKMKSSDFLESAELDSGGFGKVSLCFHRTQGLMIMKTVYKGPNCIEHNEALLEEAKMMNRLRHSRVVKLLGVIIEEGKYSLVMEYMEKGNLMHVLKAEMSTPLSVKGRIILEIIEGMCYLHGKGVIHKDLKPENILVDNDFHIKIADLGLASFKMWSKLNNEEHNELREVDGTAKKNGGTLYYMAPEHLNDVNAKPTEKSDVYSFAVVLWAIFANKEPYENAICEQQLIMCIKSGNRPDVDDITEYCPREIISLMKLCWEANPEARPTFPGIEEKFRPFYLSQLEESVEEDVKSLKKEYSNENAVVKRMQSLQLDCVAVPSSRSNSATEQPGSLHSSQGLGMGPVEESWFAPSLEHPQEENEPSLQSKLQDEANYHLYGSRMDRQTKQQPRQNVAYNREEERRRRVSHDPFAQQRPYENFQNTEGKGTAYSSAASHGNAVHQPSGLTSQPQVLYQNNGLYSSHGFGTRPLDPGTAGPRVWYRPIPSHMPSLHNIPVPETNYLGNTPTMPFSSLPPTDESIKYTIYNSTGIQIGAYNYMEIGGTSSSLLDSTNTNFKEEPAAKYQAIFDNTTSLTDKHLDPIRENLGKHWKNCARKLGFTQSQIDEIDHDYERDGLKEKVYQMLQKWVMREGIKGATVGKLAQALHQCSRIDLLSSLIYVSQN
# Experiment: RIPK1 inhibitory activity, autophosphorylation of immuno-precipitated RIPK1 with [32P]γ-ATP
# Assay type: biochemical
# Condition label: compound 100 μM; remaining RIPK1 phosphorylation

| Compound | activity at 100 µM (%) |
| --- | --- |
| CN(c1ccc(F)cc1)c1cccc2sc(C(=O)N3CCOCC3)cc12 [Example 69] | 22.5 |
| CC(=O)Nc1ccc(-c2cccc3sc(C(=O)N4CCOCC4)cc23)cc1 [Example 10] | 62.5 |
| Cc1ccc(-c2cccc3sc(C(=O)N4CCOCC4)cc23)cc1 [Example 32] | 6.5 |
| Cn1c(C#N)ccc1-c1cccc2sc(C(=O)N3CCOCC3)cc12 [Example 72] | 7 |
| Cn1c(C(=O)N2CCOCC2)cc2ccccc21 [Example 25] | 43 |
| O=C(c1cc2c(-c3ccc(F)cc3)ccc(Cl)c2s1)N1CCOCC1 [Example 53] | 70 |
| O=C(c1cc2c(S(=O)(=O)Cc3ccc(F)cc3)cccc2s1)N1CCOCC1 [Example 62] | 82.5 |
| O=C(c1cc2c(-c3ccc(F)cc3)cccc2s1)N1CCCOCC1 [Example 52] | 5.5 |
| COc1ccc(-c2cccc3sc(C(=O)N4CCOCC4)cc23)cc1 [Example 34] | 16.5 |

###

# System: RGC-5 (rat ganglion cell-5)
# Experiment: Retinal neuron protection under necroptosis inducing (TCZ; TNFα+cycloheximide+zVAD) condition, LDH assay
# Format: cell-based
# Condition label: RGC-5, TCZ 15 hours, compound 20 μM, DMSO control = 100%

| Smiles entry | Result units | Death of retinal nerve cell (%) |
| --- | --- | --- |
| O=C(c1cc2c(-c3ccc(F)cc3)cccc2s1)N1CCCOCC1 | % | 80.8 |
| Nc1ccc2sc(C(=O)N3CCOCC3)cc2c1 | % | 84.3 |
| Cc1ccc2cc(C(=O)N3CCOCC3)sc2c1C | % | 74.6 |
| Cc1ccc2[nH]c(C(=O)N3CCOCC3)cc2c1 | % | 89.9 |
| O=C(c1cc2cc(Br)ccc2o1)N1CCOCC1 | % | 59.4 |
| O=C(c1nc2ccccc2[nH]1)N1CCOCC1 | % | 69.2 |
| Cl.O=C(c1cc2c(-c3ccc(F)cc3)cccc2s1)N1CCNCC1 | % | 72.4 |
| Cn1c(C(=O)N2CCOCC2)cc2ccccc21 | % | 64.8 |
| O=C(c1cc2c(-c3ccc(F)cc3)cccc2s1)N1CCOCC1 | % | 74.9 |
| O=C(c1cc2c(-c3ccc(F)cc3)cccc2s1)N1CCCCC1 | % | 89.1 |

###

# Tested on: RGC-5 (rat ganglion cell-5)
# Experiment: Retinal neuron protection under necroptosis inducing (TCZ; TNFα+cycloheximide+zVAD) condition, LDH assay
# Assay type: cell-based
# Condition label: RGC-5, TCZ 15 hours, compound 20 μM, DMSO control = 100%
Measured Death of retinal nerve cell (%) values are reported for all entries that follow.
Measurement kind: Death of retinal nerve cell (%)

| Compound | Obs value |
| --- | --- |
| COc1ccc2[nH]c(C(=O)N3CCOCC3)nc2c1 [Example 24] | 66.6 |
| O=C(c1cc2c(-c3ccc(F)cc3)cnc(Cl)c2s1)N1CCOCC1 [Example 5] | 57.6 |
| O=C(c1cc2cc(Cl)ccc2[nH]1)N1CCOCC1 [Example 12] | 50.5 |
